Test system: Splenocytes
Assay: Immune-stimulating function of compounds alone (splenocytes in vitro)
Type: cell-based, mouse
Conditions: splenocytes treated with compound alone (FIG. 6)
quantityMeasured: IL-4 secretion

[
  {
    "molecule": "CCCCCCCCCCCCNC(=O)[C@H](CO[C@@H]1C(O)[C@@H](O)[C@@H](O)C2COC(=O)N21)NC(=O)CCCCCCCCCCC (stereo partly drawn)",
    "experimentalResult": "not IL-4"
  },
  {
    "molecule": "CCCCCCCCCCCCNC(=O)[C@H](CS[C@@H]1C(O)[C@@H](O)[C@@H](O)C2COC(=O)N21)NC(=O)CCCCCCCCCCC (stereo partly drawn)",
    "experimentalResult": "not IL-4"
  }
]

src = patent US20250154165A1
